Molecular target: KRAS G12D (Homo sapiens (Human), UniProt P01116+P62937, G12D)
Sequence (P01116 other isoform, or with tags, fused parts or gaps G12D): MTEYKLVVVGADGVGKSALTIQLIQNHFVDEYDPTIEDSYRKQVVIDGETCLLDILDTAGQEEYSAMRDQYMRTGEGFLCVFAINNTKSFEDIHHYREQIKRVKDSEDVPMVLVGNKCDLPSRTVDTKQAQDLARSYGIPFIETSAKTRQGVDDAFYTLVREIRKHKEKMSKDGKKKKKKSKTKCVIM
Sequence (P62937 whole entry): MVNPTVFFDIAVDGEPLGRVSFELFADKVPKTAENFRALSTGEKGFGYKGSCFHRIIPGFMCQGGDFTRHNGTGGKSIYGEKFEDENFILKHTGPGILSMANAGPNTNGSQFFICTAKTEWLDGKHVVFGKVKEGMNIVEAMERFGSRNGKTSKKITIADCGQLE
Test: Ras-Raf disruption/FRET/MOA assay (BRAF RBD, Cyclophilin A)
Assay type: biochemical
Conditions: read-out: KRAS G12D FRET IC50
Description: Compound is present in plate wells as a 10-point 3-fold dilution series starting at a final concentration of 30 μM. After incubation at 25° C. for 3 hours, a mixture of Anti-His Eu—W1024 and anti-GST allophycocyanin is then added to assay sample wells at final concentrations of 10 nM and 50 nM, respectively, and the reaction incubated for an additional 1.5 hours. […]
pIC50: −log10 of the molar value.
Catalogue of pIC50 values

For orientation, consider the following solved cases.
compound	target.system	pIC50
CCn1c(-c2cccnc2[C@H](C)OC)c2c3cc(ccc31)-c1cc(cc(S(C)(=O)=O)c1)C[C@H](NC(=O)[C@H](C(C)C)N(C)C(C)=O)C(=O)N1CCC[C@H](N1)C(=O)OCC(C)(C)C2 [Compound A154]	KRAS G12D (Homo sapiens (Human), UniProt P01116+P62937, G12D)	< 5.00
CCn1c(-c2cccnc2[C@H](C)OC)c2c3cc(ccc31)-c1cc(O)cc(c1)C[C@H](NC(=O)[C@H](C(C)C)N(C)C(=O)[C@H]1CC1(C)C)C(=O)N1CCC[C@H](N1)C(=O)OCC(C)(C)C2 [Compound A158]	KRAS G12D (Homo sapiens (Human), UniProt P01116+P62937, G12D)	6.00 to 7.00
CCn1c(-c2cccnc2[C@H](C)OC)c2c3cc(ccc31)-c1csc(n1)C[C@H](NC(=O)[C@H](C(C)C)N(C)C(=O)N1CCC13COC3)C(=O)N1CCC[C@H](N1)C(=O)OCC(C)(C)C2 [Compound A560]	KRAS G12D (Homo sapiens (Human), UniProt P01116+P62937, G12D)	6.00 to 7.00
CCn1c(-c2cccnc2[C@H](C)OC)c2c3cc(ccc31)-c1csc(n1)C[C@H](NC(=O)[C@H](C(C)C)N(C)C(=O)N1CC3CC(C1)O3)C(=O)N1CCC[C@H](N1)C(=O)OCC(C)(C)C2 [Compound A301]	KRAS G12D (Homo sapiens (Human), UniProt P01116+P62937, G12D)	5.00 to 6.00

Now for the compound whose pIC50 we want.
Q: Give the measured pIC50 of CCn1c(-c2cccnc2[C@H](C)OC)c2c3cc(ccc31)-c1csc(n1)C[C@H](NC(=O)[C@H](C(C)C)N(C)C(=O)[C@@H]1[C@@H]3CN(C)C[C@@H]31)C(=O)N1CCC[C@H](N1)C(=O)OCC(C)(C)C2 [Compound A447] .
Ans: 6.00 to 7.00

Attribution: patent US20250195521A1
